# assayInfo: Solubility of compound at pH 7.5
# Assay type: physicochemical
# conditionSummary: buffer
experimentalEndpoint: solubility (µg/mL)
Give bare numbers, in µg/mL.

**Q:** Would you kindly share the measured solubility for "O=S(=O)([O-])Nc1ccc(-c2nc3ccccc3s2)cc1Cl.[Na+]" ?
**A:** 300

###

# assayInfo: Log P (Cyclohexane:buffer pH 7.4)
# Assay type: physicochemical
Can you tell me logD for the items I'm about to list?

**Q:** Would you kindly share the measured logD for "Nc1ccc(-c2nc3ccccc3s2)cc1I" ?
**A:** > 2.7

**Q:** Would you kindly share the measured logD for "Cc1cc(-c2nc3ccccc3s2)ccc1NS(=O)(=O)[O-].[Na+]" ?
**A:** < 3

**Q:** Would you kindly share the measured logD for "Nc1ccc(-c2nc3ccccc3s2)cc1Br" ?
**A:** > 2.8

List reported logD for each of these compounds:
1. O=S(=O)([O-])Nc1ccc(-c2nc3ccccc3s2)cc1I.[Na+]
2. O=S(=O)([O-])Nc1ccc(-c2nc3ccccc3s2)cc1Cl.[Na+]
3. Cc1cc(-c2nc3ccccc3s2)ccc1N
4. Nc1ccc(-c2nc3ccccc3s2)cc1Cl

**A:**
[1.9, "< 2.19", 2.51, "> 3.2"]

###

# assayInfo: Solubility of compound at pH 9
# Assay type: physicochemical
# conditionSummary: buffer
experimentalEndpoint: solubility (µg/mL)
One number for each entry, in µg/mL.

**Q:** Would you kindly share the measured solubility for "O=S(=O)([O-])Nc1ccc(-c2nc3ccccc3s2)cc1Cl.[Na+]" ?
**A:** 700

###

# assayInfo: Solubility of compound at pH 7.1
# Format: physicochemical
# conditionSummary: buffer
experimentalEndpoint: solubility (µg/mL)
Numbers only, in µg/mL.

**Q:** Would you kindly share the measured solubility for "O=S(=O)([O-])Nc1ccc(-c2nc3ccccc3s2)cc1Cl.[Na+]" ?
**A:** 300

###

# assayInfo: Solubility of compound at pH 4.2
# Assay type: physicochemical
# conditionSummary: buffer
experimentalEndpoint: solubility (µg/mL)
One number for each entry, in µg/mL.

**Q:** Would you kindly share the measured solubility for "O=S(=O)([O-])Nc1ccc(-c2nc3ccccc3s2)cc1Cl.[Na+]" ?
**A:** 500

###

# assayInfo: Solubility of compound at pH 6
# Type: physicochemical
# conditionSummary: buffer
experimentalEndpoint: solubility (µg/mL)
Give bare numbers, in µg/mL.

**Q:** Would you kindly share the measured solubility for "O=S(=O)([O-])Nc1ccc(-c2nc3ccccc3s2)cc1Cl.[Na+]" ?
**A:** 400

###

# assayInfo: Log P (Octanol:buffer pH 7.4)
# Type: physicochemical
Can you tell me logD for the items I'm about to list?
Numbers only.

// known answers, use as guide
**Q:** Would you kindly share the measured logD for "O=S(=O)([O-])Nc1ccc(-c2nc3ccccc3s2)cc1Cl.[Na+]" ?
**A:** 0.02

**Q:** Would you kindly share the measured logD for "O=S(=O)([O-])Nc1ccc(-c2nc3ccccc3s2)cc1I.[Na+]" ?
**A:** 1.8

**Q:** Would you kindly share the measured logD for "Cc1cc(-c2nc3ccccc3s2)ccc1N" ?
**A:** 3.96

**Q:** Would you kindly share the measured logD for "O=S(=O)(O)Nc1ccc(-c2nc3ccccc3s2)cc1" ?
**A:** 3.4

# ---- query compound ----
**Q:** Would you kindly share the measured logD for "Cc1cc(-c2nc3ccccc3s2)ccc1NS(=O)(=O)[O-].[Na+]" ?
**A:** 0.6
